System: Oryza sativa
EXPERIMENT NOTES: Phytotoxicity to rice (direct-seeded and transplanted) in paddy condition, greenhouse pot test
Type: in vivo
CONDITION CONTEXT: 10 g/ha; direct-seeded rice, treated 5 days after sowing; visual rating after two weeks
Description: Pots having a surface area of 150 cm^2 were filled with a small amount of fertilizer and sterilized paddy field soil in a muddy state with a depth of 5 cm. Five (5) seeds of pre-germinated rice were directly sown on the soil surface and three (3) rice seedlings (2˜3 leaves) prepared in advance were transplanted in a depth of 2 cm in each pot. In another pot, seeds of barnyardgrass were sown and incorporated into the surface layer of soil. […]
Listing of recorded Phytotoxicity, Oryza sativa, Seed by entry.

{"columns": ["MOLECULE", "Phytotoxicity, Oryza sativa, Seed (%)"],
 "data": [
  ["COc1cc(OC)nc(NC(=O)NS(=O)(=O)c2ccccc2[C@@H](O)[C@H](C)F)n1 [Standard Compound A, reference compound]", 40],
  ["COc1cc(OC)nc(NC(=O)NS(=O)(=O)c2cccnc2[C@@H](O)[C@H](C)F)n1 [Standard Compound C, reference compound]", 10],
  ["COc1cc(OC)nc(NC(=O)NS(=O)(=O)c2cccnc2[C@@H](OC(C)=O)[C@H](C)F)n1 [Standard Compound D, reference compound]", 10],
  ["CCOC(=O)c1cnn(C)c1S(=O)(=O)NC(=O)Nc1nc(OC)cc(OC)n1 [Standard Compound E, Pyrazosulfuron-ethyl, reference compound]", 0],
  ["COCC(=O)O[C@H](c1nccc(Cl)c1S(=O)(=O)NC(=O)Nc1nc(OC)cc(OC)n1)[C@H](C)F [Com. 5]", 0],
  ["COc1cc(OC)nc(NC(=O)NS(=O)(=O)c2cccnc2[C@@H](OC(=O)CO)[C@H](C)F)n1 [Com. 1]", 0],
  ["COc1cc(OC)nc(NC(=O)NS(=O)(=O)c2ccccc2[C@@H](OC(C)=O)[C@H](C)F)n1 [Standard Compound B, reference compound]", 30],
  ["COCC(=O)O[C@H](c1nccc(C)c1S(=O)(=O)NC(=O)Nc1nc(OC)cc(OC)n1)[C@H](C)F [Com. 7]", 0],
  ["COCC(=O)O[C@H](c1nccc(Br)c1S(=O)(=O)NC(=O)Nc1nc(OC)cc(OC)n1)[C@H](C)F [Com. 6]", 0],
  ["COCC(=O)O[C@H](c1ncccc1S(=O)(=O)NC(=O)Nc1nc(OC)cc(OC)n1)[C@H](C)F [Com. 2]", 0],
  ["COCCC(=O)O[C@H](c1ncccc1S(=O)(=O)NC(=O)Nc1nc(OC)cc(OC)n1)[C@H](C)F [Com. 4]", 0],
  ["COc1cc(OC)nc(NC(=O)NS(=O)(=O)c2cccnc2[C@@H](OC(=O)CCO)[C@H](C)F)n1 [Com. 3]", 0]
]}

* * *

System: Echinochloa crus-galli
EXPERIMENT NOTES: Herbicidal activity to barnyardgrass in paddy condition, pre- and post-emergence, greenhouse pot test
Type: in vivo
CONDITION CONTEXT: Echinochloa crus-galli, 336 h; 30 g/ha; post-emergence, three-leaf stage; visual rating after two weeks; read-out: Herbicidal activity, Echinochloa crus-galli, Post-emergence (3-Leaf stage)
A collection of molecules and their measured pest or weed control at 30 g/ha

{"columns": ["MOLECULE", "MEASUREMENT TARGET", "UNITS", "pest or weed control at 30 g/ha"],
 "data": [
  ["COc1cc(OC)nc(NC(=O)NS(=O)(=O)c2ccccc2[C@@H](OC(C)=O)[C@H](C)F)n1 [Standard Compound B, reference compound]", "Echinochloa crus-galli", "%", 100],
  ["COCC(=O)O[C@H](c1ncccc1S(=O)(=O)NC(=O)Nc1nc(OC)cc(OC)n1)[C@H](C)F", "Echinochloa crus-galli", "%", 100],
  ["CCOC(=O)c1cnn(C)c1S(=O)(=O)NC(=O)Nc1nc(OC)cc(OC)n1 [Standard Compound E, Pyrazosulfuron-ethyl, reference compound]", "Echinochloa crus-galli", "%", 20],
  ["COCCC(=O)O[C@H](c1ncccc1S(=O)(=O)NC(=O)Nc1nc(OC)cc(OC)n1)[C@H](C)F", "Echinochloa crus-galli", "%", 100]
]}

* * *

Test system: Oryza sativa
EXPERIMENT NOTES: Phytotoxicity to rice (direct-seeded and transplanted) in paddy condition, greenhouse pot test
Type: in vivo
CONDITION CONTEXT: 80 g/ha; transplanted rice seedlings, treated 5 days after transplanting; visual rating after two weeks
READOUT: Phytotoxicity, Oryza sativa, Transplanted (%)

{"columns": ["COMPOUND", "DATA VALUE"],
 "data": [
  ["COCC(=O)O[C@H](c1nccc(C)c1S(=O)(=O)NC(=O)Nc1nc(OC)cc(OC)n1)[C@H](C)F", 20],
  ["COCC(=O)O[C@H](c1ncccc1S(=O)(=O)NC(=O)Nc1nc(OC)cc(OC)n1)[C@H](C)F", 10],
  ["COCC(=O)O[C@H](c1nccc(Br)c1S(=O)(=O)NC(=O)Nc1nc(OC)cc(OC)n1)[C@H](C)F", 20],
  ["COc1cc(OC)nc(NC(=O)NS(=O)(=O)c2cccnc2[C@@H](OC(C)=O)[C@H](C)F)n1 [Standard Compound D, reference compound]", 50],
  ["CCOC(=O)c1cnn(C)c1S(=O)(=O)NC(=O)Nc1nc(OC)cc(OC)n1 [Standard Compound E, Pyrazosulfuron-ethyl, reference compound]", 10]
]}

* * *

Tested on: Oryza sativa
EXPERIMENT NOTES: Phytotoxicity to rice (direct-seeded and transplanted) in paddy condition, greenhouse pot test
Format: in vivo
CONDITION CONTEXT: 20 g/ha; direct-seeded rice, treated 5 days after sowing; visual rating after two weeks
// Phytotoxicity, Oryza sativa, Seed lookup, one value per entry
READOUT: Phytotoxicity, Oryza sativa, Seed (%)

{"columns": ["COMPOUND", "DATA VALUE"],
 "data": [
  ["COCCC(=O)O[C@H](c1ncccc1S(=O)(=O)NC(=O)Nc1nc(OC)cc(OC)n1)[C@H](C)F", 0],
  ["COCC(=O)O[C@H](c1nccc(Br)c1S(=O)(=O)NC(=O)Nc1nc(OC)cc(OC)n1)[C@H](C)F", 0],
  ["COCC(=O)O[C@H](c1nccc(Cl)c1S(=O)(=O)NC(=O)Nc1nc(OC)cc(OC)n1)[C@H](C)F", 10],
  ["COc1cc(OC)nc(NC(=O)NS(=O)(=O)c2ccccc2[C@@H](OC(C)=O)[C@H](C)F)n1 [Standard Compound B, reference compound]", 40],
  ["COc1cc(OC)nc(NC(=O)NS(=O)(=O)c2cccnc2[C@@H](O)[C@H](C)F)n1 [Standard Compound C, reference compound]", 20],
  ["COc1cc(OC)nc(NC(=O)NS(=O)(=O)c2cccnc2[C@@H](OC(=O)CCO)[C@H](C)F)n1", 10],
  ["CCOC(=O)c1cnn(C)c1S(=O)(=O)NC(=O)Nc1nc(OC)cc(OC)n1 [Standard Compound E, Pyrazosulfuron-ethyl, reference compound]", 10],
  ["COCC(=O)O[C@H](c1ncccc1S(=O)(=O)NC(=O)Nc1nc(OC)cc(OC)n1)[C@H](C)F", 0],
  ["COc1cc(OC)nc(NC(=O)NS(=O)(=O)c2ccccc2[C@@H](O)[C@H](C)F)n1 [Standard Compound A, reference compound]", 40],
  ["COCC(=O)O[C@H](c1nccc(C)c1S(=O)(=O)NC(=O)Nc1nc(OC)cc(OC)n1)[C@H](C)F", 0],
  ["COc1cc(OC)nc(NC(=O)NS(=O)(=O)c2cccnc2[C@@H](OC(=O)CO)[C@H](C)F)n1", 10],
  ["COc1cc(OC)nc(NC(=O)NS(=O)(=O)c2cccnc2[C@@H](OC(C)=O)[C@H](C)F)n1 [Standard Compound D, reference compound]", 20]
]}

* * *

Test system: Echinochloa crus-galli
EXPERIMENT NOTES: Herbicidal activity to barnyardgrass in paddy condition, pre- and post-emergence, greenhouse pot test
Assay type: in vivo
CONDITION CONTEXT: Echinochloa crus-galli, 336 h; 10 g/ha; post-emergence, three-leaf stage; visual rating after two weeks; read-out: Herbicidal activity, Echinochloa crus-galli, Post-emergence (3-Leaf stage)
Measured pest or weed control at 10 g/ha values are reported for all entries that follow.
READOUT: pest or weed control at 10 g/ha (%)

{"columns": ["COMPOUND", "UNITS", "DATA VALUE"],
 "data": [
  ["COCC(=O)O[C@H](c1nccc(Br)c1S(=O)(=O)NC(=O)Nc1nc(OC)cc(OC)n1)[C@H](C)F [Com. 6]", "%", 70],
  ["COCCC(=O)O[C@H](c1ncccc1S(=O)(=O)NC(=O)Nc1nc(OC)cc(OC)n1)[C@H](C)F [Com. 4]", "%", 90],
  ["COc1cc(OC)nc(NC(=O)NS(=O)(=O)c2cccnc2[C@@H](OC(=O)CCO)[C@H](C)F)n1 [Com. 3]", "%", 80],
  ["COCC(=O)O[C@H](c1nccc(C)c1S(=O)(=O)NC(=O)Nc1nc(OC)cc(OC)n1)[C@H](C)F [Com. 7]", "%", 80],
  ["COc1cc(OC)nc(NC(=O)NS(=O)(=O)c2cccnc2[C@@H](O)[C@H](C)F)n1 [Standard Compound C, reference compound]", "%", 90],
  ["COCC(=O)O[C@H](c1nccc(Cl)c1S(=O)(=O)NC(=O)Nc1nc(OC)cc(OC)n1)[C@H](C)F [Com. 5]", "%", 70],
  ["COCC(=O)O[C@H](c1ncccc1S(=O)(=O)NC(=O)Nc1nc(OC)cc(OC)n1)[C@H](C)F [Com. 2]", "%", 90]
]}
